# ASSAY_TEXT: Hydroformylation reaction rate of rhodium/ligand catalyst
# COND: hexane, 90° C., 100 psi syngas (CO/H2 1:1), 300 ppm Rh, ligand/rhodium 20/1
# Procedure: […] A mixture of 1,2,3,6-tetrahydrobenzaldehyde (6 grams) and octane (4 grams, internal standard) was added to the autoclave. The reaction rate was determined by gas chromatographic analyses of the samples taken during the course of reaction. The procedure described in Example 1 was repeated with the modification of using Ligands B-F in place of Ligand A. The reaction rates for Ligands B-F are summarized in Table 1.
Please respond with reported reaction rate for every item in the list.
Could you write the number and then its unit?

[
  {
    "STRUCTURE": "CCCCCCCCCC(C)(C)c1ccc(OP(Oc2ccc(C(C)(C)CCCCCCCCC)cc2C(C)(C)CCCCCCCCC)Oc2ccc(C(C)(C)CCCCCCCCC)cc2C(C)(C)CCCCCCCCC)c(C(C)(C)CCCCCCCCC)c1",
    "reaction rate": "3.3 mol/L-hr"
  }
]

Look at each molecule and report its reaction rate.
1. CCCCCC(C)(C)c1ccc(OP(Oc2ccc(C(C)(C)CCCCC)cc2C(C)(C)CCCCC)Oc2ccc(C(C)(C)CCCCC)cc2C(C)(C)CCCCC)c(C(C)(C)CCCCC)c1
2. CCC(C)(C)c1ccc(OP(Oc2ccc(C(C)(C)CC)cc2C(C)(C)CC)Oc2ccc(C(C)(C)CC)cc2C(C)(C)CC)c(C(C)(C)CC)c1

["3.7 mol/L-hr", "3.6 mol/L-hr"]

###

For each record, write down the corresponding reaction rate.
# ASSAY_TEXT: Hydroformylation reaction rate of rhodium/ligand catalyst
# COND: hexane, 90° C., 100 psi syngas (CO/H2 1:1), 300 ppm Rh, ligand/rhodium 20/1
Give bare numbers, in mol/L-hr.

[
  {
    "STRUCTURE": "CC(C)(c1ccccc1)c1ccc(OP(Oc2ccc(C(C)(C)c3ccccc3)cc2C(C)(C)c2ccccc2)Oc2ccc(C(C)(C)c3ccccc3)cc2C(C)(C)c2ccccc2)c(C(C)(C)c2ccccc2)c1",
    "reaction rate [mol/L-hr]": 2.5
  }
]

# per-item lookup of reaction rate; items listed below
1. CC(C)(C)c1ccc(OP(Oc2ccc(C(C)(C)C)cc2C(C)(C)C)Oc2ccc(C(C)(C)C)cc2C(C)(C)C)c(C(C)(C)C)c1
2. CC(C)(C)c1ccccc1OP(Oc1ccccc1C(C)(C)C)Oc1ccccc1C(C)(C)C

1. 4.0
2. 3.4

The measured values listed here are drawn from patent US6252121A.
